Molecular target: VIPR2 (Homo sapiens)
Assay: Inhibition of VIP-induced β-arrestin recruitment (% Activity Arrestin)
Assay type: cell-based
Set-up: expressed in transfected cells; host or cells: HEK293 cells transfected with VIPR2 in pCDNA3.1 (as described)
Conditions: 1 μM, Batch 1
Test readout: inhibition at 1 µM (%)

Examples from the recorded data:
Chem smiles: CC(C)CS(=O)(=O)NC[C@@H](O)C[C@@H](Cc1ccccc1)C(=O)N[C@H]1c2ccccc2C[C@H]1O
inhibition at 1 µM (%): 3.2
--
Chem smiles: O=C(NC[C@@H](O)C[C@@H](Cc1ccccc1)C(=O)N[C@H]1c2ccccc2C[C@H]1O)c1cccc(CCl)c1
inhibition at 1 µM (%): 5.7
--
Chem smiles: CC(C)C(=O)NC[C@@H](O)C[C@@H](Cc1ccccc1)C(=O)N[C@H]1c2ccccc2C[C@H]1O
inhibition at 1 µM (%): -10.7
--
Chem smiles: CC(C)(C)c1ccc(C(=O)NC[C@@H](O)C[C@@H](Cc2ccccc2)C(=O)N[C@H]2c3ccccc3C[C@H]2O)cc1
inhibition at 1 µM (%): 11.3
--
Chem smiles: C#CCCCC(=O)NC[C@@H](O)C[C@@H](Cc1ccccc1)C(=O)N[C@H]1c2ccccc2C[C@H]1O
inhibition at 1 µM (%): 16.1

1: NC[C@@H](O)C[C@@H](Cc1ccccc1)C(=O)N[C@H]1c2ccccc2C[C@H]1O
2: CC(C)c1cc(C(C)C)c(S(=O)(=O)NC[C@@H](O)C[C@@H](Cc2ccccc2)C(=O)N[C@H]2c3ccccc3C[C@H]2O)c(C(C)C)c1
Select one: 1 or 2 . Criterion: greater recorded inhibition at 1 µM. Please respond with the label that marks your chosen entry.
2

###

Molecular target: VIPR2 (Homo sapiens, UniProt P41587)
Sequence (P41587 24-438): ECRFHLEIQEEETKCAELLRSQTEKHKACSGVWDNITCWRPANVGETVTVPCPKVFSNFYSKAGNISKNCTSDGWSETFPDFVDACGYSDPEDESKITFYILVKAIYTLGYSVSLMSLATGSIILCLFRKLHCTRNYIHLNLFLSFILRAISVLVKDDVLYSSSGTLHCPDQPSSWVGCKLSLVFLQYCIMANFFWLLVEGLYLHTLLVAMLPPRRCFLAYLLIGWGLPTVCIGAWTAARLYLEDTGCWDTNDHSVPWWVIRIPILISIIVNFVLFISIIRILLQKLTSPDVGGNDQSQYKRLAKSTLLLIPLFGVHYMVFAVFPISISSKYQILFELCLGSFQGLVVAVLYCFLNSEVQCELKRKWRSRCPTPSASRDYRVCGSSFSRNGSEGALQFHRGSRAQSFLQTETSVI
Test: Inhibition of VIP-induced cAMP elevation (% Activity cAMP)
Type: cell-based
Parameters: expressed in transfected cells; host or cells: HEK293 cells transfected with VIPR2 in pCDNA3.1 (as described)
Details: 1 μM, Batch 2
Test readout: inhibition at 1 µM (%)

Below, each entry is followed by its recorded inhibition at 1 µM result.
Molecule: O=C(N[C@H]1c2ccccc2C[C@H]1O)[C@H](Cc1ccccc1)C[C@H](O)CNS(=O)(=O)c1ccc([N+](=O)[O-])cc1 [Compound A27, reference compound]
Recorded result: 70.9

Molecule: O=C([C@@H](Cc1ccccc1)C[C@H](O)CNS(=O)(=O)c1ccc([N+](=O)[O-])cc1)N1CCCCC1 [Compound B18B]
Recorded result: 14.2

P: CC1CCC(NC(=O)[C@H](Cc2ccccc2)C[C@H](O)CNS(=O)(=O)c2ccc([N+](=O)[O-])cc2)CC1 (stereo partly drawn) [Compound B8A]
Q: CCNC(=O)[C@@H](Cc1ccccc1)C[C@H](O)CNS(=O)(=O)c1ccc([N+](=O)[O-])cc1 [Compound B16B]
R: O=C(NC1CCCc2ccccc21)[C@H](Cc1ccccc1)C[C@H](O)CNS(=O)(=O)c1ccc([N+](=O)[O-])cc1 (stereo partly drawn) [Compound B13A]
S: NC(=O)[C@H](Cc1ccccc1)C[C@H](O)CNS(=O)(=O)c1ccc([N+](=O)[O-])cc1 [Compound B12A]
T: O=C(NCc1ccccc1)[C@H](Cc1ccccc1)C[C@H](O)CNS(=O)(=O)c1ccc([N+](=O)[O-])cc1 [Compound B3A]
Please list these in order of increasing inhibition at 1 µM. Thank you! Please respond by ranking the labels in the order requested.
P, T, Q, S, R
(P: -2.5%, T: -1.3%, Q: -0.9%, S: 3.6%, R: 12.4%)

a: O=C(NCc1ccc(F)cc1F)[C@@H](Cc1ccccc1)C[C@H](O)CNS(=O)(=O)c1ccc([N+](=O)[O-])cc1 [Compound B14B]
b: O=C(NN1CCCCC1)[C@@H](Cc1ccccc1)C[C@H](O)CNS(=O)(=O)c1ccc([N+](=O)[O-])cc1 [Compound B6B]
Recorded inhibition at 1 µM values differ for a and b ; which one is higher? Which one? Tell me its label.
b
(b: 12.3%, a: 4.7%)

###

Target: VIPR2 (Homo sapiens)
Assay: Inhibition of VIP-induced β-arrestin recruitment (% Activity Arrestin)
Format: cell-based
Set-up: expressed in transfected cells; host or cells: HEK293 cells transfected with VIPR2 in pCDNA3.1 (as described)
Details: 5 μM, Batch 3
Excerpt: In a further non-limiting embodiment of the invention, the ability of a compound to inhibit VIPR2 GPCR activity may be tested, for example, using the PathHunter® eXpress β-Arrestin GPCR system (Discoverx Corporation, Fremont, Calif., US), as used by Chu et al., 2010, Molecular Pharmacol. 7795-101. […]
Test readout: inhibition at 5 µM (%)

A: Nc1ccc(S(=O)(=O)NC[C@@H](O)C[C@@H](Cc2ccccc2)C(=O)N[C@H]2c3ccccc3C[C@H]2O)cc1
B: CC(=O)Nc1ccc(S(=O)(=O)NC[C@H](C[C@@H](Cc2ccccc2)C(=O)N[C@H]2c3ccccc3C[C@H]2OC(C)=O)OC(C)=O)cc1
C: CCN(CC)C(=O)c1ccc(S(=O)(=O)NC[C@@H](O)C[C@@H](Cc2ccccc2)C(=O)N[C@H]2c3ccccc3C[C@H]2O)cc1
Arrange the 3 compounds by rising inhibition at 5 µM, starting with the smallest. To answer, arrange all of the labels according to the requested order.
C, A, B
(C: -1.2%, A: 6.7%, B: 9.7%)

###

Biological target: VIPR2 (Homo sapiens, UniProt P41587)
Experiment: Inhibition of VIP-induced β-arrestin recruitment (% Activity Arrestin)
Assay type: cell-based
Set-up: expressed in transfected cells; host or cells: HEK293 cells transfected with VIPR2 in pCDNA3.1 (as described)
Details: 1 μM, Batch 3
Test readout: inhibition at 1 µM (%)

a: CC(=O)Nc1ccc(S(=O)(=O)NC[C@H](C[C@@H](Cc2ccccc2)C(=O)N[C@H]2c3ccccc3C[C@H]2O)OC(C)=O)cc1 [Compound X089]
b: O=C(N[C@H]1c2ccccc2C[C@H]1O)[C@H](Cc1ccccc1)C[C@H](O)CNS(=O)(=O)c1ccc([N+](=O)[O-])cc1 [Compound A27, reference compound]
c: CC(C)CNc1ccc(S(=O)(=O)NC[C@@H](O)C[C@@H](Cc2ccccc2)C(=O)N[C@H]2c3ccccc3C[C@H]2O)cc1 [Compound X086]
Please rank everything listed above by inhibition at 1 µM, with the minimum value first. List the labels in the requested order.
b, a, c

###

Molecular target: VIPR2 (Homo sapiens, UniProt P41587)
Assay: Inhibition of VIP-induced cAMP elevation (% Activity cAMP)
Assay type: cell-based
Set-up: expressed in transfected cells; host or cells: HEK293 cells transfected with VIPR2 in pCDNA3.1 (as described)
Details: 0.5 μM, Batch 1
Test readout: inhibition at 0.5 µM (%)

Compound: O=C(Cc1cccc(Cl)c1)NC[C@@H](O)C[C@@H](Cc1ccccc1)C(=O)N[C@H]1c2ccccc2C[C@H]1O [Compound A19]
Measurement unit: %
inhibition at 0.5 µM: 14.4

1: O=C(NC[C@@H](O)C[C@@H](Cc1ccccc1)C(=O)N[C@H]1c2ccccc2C[C@H]1O)c1ccc([N+](=O)[O-])cc1 [Compound A25]
2: Cc1cc(S(=O)(=O)NC[C@@H](O)C[C@@H](Cc2ccccc2)C(=O)N[C@H]2c3ccccc3C[C@H]2O)c(C)cc1Cl [Compound A3]
For 1 and 2 , which recorded inhibition at 0.5 µM is lower? Identify your selection by its label.
1

###

Target: VIPR2 (Homo sapiens, UniProt P41587)
Assay: Inhibition of VIP-induced cAMP elevation (% Activity cAMP)
Format: cell-based
Parameters: expressed in transfected cells; host or cells: HEK293 cells transfected with VIPR2 in pCDNA3.1 (as described)
Conditions: 5 μM, Batch 1
Test readout: inhibition at 5 µM (%)

Molecule: Cc1ccc([N+](=O)[O-])cc1S(=O)(=O)NC[C@@H](O)C[C@@H](Cc1ccccc1)C(=O)N[C@H]1c2ccccc2C[C@H]1O [P]
Measurement unit: %
Recorded result: 18.3
--
Molecule: O=C(NC[C@@H](O)C[C@@H](Cc1ccccc1)C(=O)N[C@H]1c2ccccc2C[C@H]1O)c1ccc([N+](=O)[O-])cc1 [Compound A25]
Measurement unit: %
Recorded result: 21.1
--
Molecule: N#Cc1ccc(S(=O)(=O)NC[C@@H](O)C[C@@H](Cc2ccccc2)C(=O)N[C@H]2c3ccccc3C[C@H]2O)cc1 [C]
Measurement unit: %
Recorded result: 93.1
--
Molecule: C#CCCCC(=O)NC[C@@H](O)C[C@@H](Cc1ccccc1)C(=O)N[C@H]1c2ccccc2C[C@H]1O [Compound A23]
Measurement unit: %
Recorded result: 26.6

A: O=C(NC[C@@H](O)C[C@@H](Cc1ccccc1)C(=O)N[C@H]1c2ccccc2C[C@H]1O)c1ccccn1 [Compound A17]
B: O=C(NC[C@@H](O)C[C@@H](Cc1ccccc1)C(=O)N[C@H]1c2ccccc2C[C@H]1O)c1cccc([N+](=O)[O-])c1 [M]
// max by inhibition at 5 µM over [ A , B ] Refer to your chosen entry by its label in the reply.
A
(A: 20.3%, B: 13.5%)
